The entries below come with measured GI50 values attached.
- Tested on: human SKM-1 acute myeloid leukemia cells
- METHOD NOTES: SKM-1 antiproliferation cell-based assay (ATPlite)
- REPORTED CONDITIONS: Homo sapiens, SKM-1, 96 h, SKM-1 antiproliferation assay, 4 days, Table C2
READOUT: GI50

INSERT INTO measurements (molecule, val) VALUES
  ('Cn1cc(-c2cc(F)cc(-c3ccc(-n4ccn(C)c4=O)c(Cl)c3)c2O)cc(N2CCC(C)(O)C2)c1=O (stereo not shown)', '30 to 300 nM'),
  ('CN1CCN(c2ccc(-c3cc(F)cc(-c4cnc(Cl)c(N5CCNCC5)c4)c3O)cc2Cl)C1=O', '0.3 to 30 nM'),
  ('CN1CCN(c2ccc(-c3cc(C(F)(F)F)cc(-c4ccnc(N5CCNCC5)c4)c3O)cc2Cl)C1=O', '≥ 3000 nM'),
  ('C[C@@H]1CN(c2cc(-c3cc(F)cc(-c4ccc(-n5ccn(C)c5=O)c(Cl)c4)c3O)cc3c2cnn3C)CCN1', '0.3 to 30 nM');

====

- ASSAY TARGET: human BRD4 bromodomain II (Homo sapiens)
- Construct: human BRD4 bromodomain II [based on Genbank NM_058243, residues 349-460]; host or cells: E. coli
- METHOD NOTES: Bromodomain binding assay (AlphaScreen), BRD4 BDII
- REPORTED CONDITIONS: AlphaScreen assay, Table C2; read-out: BRD4 BDII IC50
READOUT: IC50

INSERT INTO measurements (compound, val) VALUES
  ('Cn1ccn(-c2ccc(-c3cc(F)cc(-c4ccnc(N5CC6(CCNC6)CC5=O)c4)c3O)cc2Cl)c1=O (stereo not shown)', '0.01 to 1 nM'),
  ('COC[C@@H]1CN(c2cc(-c3cc(F)cc(-c4ccc(-n5ccn(C)c5=O)c(Cl)c4)c3O)ccn2)CCN1', '0.01 to 1 nM'),
  ('CC(=O)Nc1ccc(-c2cccc(-c3ccc4c(c3)OCCCN4C(C)=O)c2O)cc1F', '> 100 nM'),
  ('C[C@@H]1CN(c2cc(-c3cc(F)cc(-c4ccc(-n5ccn(C)c5=O)c(Cl)c4)c3O)cc3[nH]nnc23)CCN1', '1 to 10 nM'),
  ('CN1CCN(c2ccc(-c3cc(F)cc(-c4ccnc(NCCN)c4)c3O)cc2Cl)C1=O', '10 to 100 nM'),
  ('Cn1ccn(-c2ccc(-c3cc(F)cc(-c4cncc(N5CC[C@H](N)C5)c4)c3O)cc2Cl)c1=O', '1 to 10 nM'),
  ('Cn1ccn(-c2ccc(-c3cc(F)cc(-c4cncc(N5CCC(N)CC5)c4)c3O)cc2Cl)c1=O', '1 to 10 nM'),
  ('CC(=O)Nc1ccc(-c2cccc(-c3ccc(C(C)C)cc3)c2O)cc1F', '> 100 nM'),
  ('O=c1ccccn1-c1ccc(-c2cc(F)cc(-c3ccnc(N4CCNCC4)c3)c2O)cc1Cl', '> 100 nM'),
  ('Cn1ccn(-c2ccc(-c3cc(F)cc(-c4ccc5ccc(C(C)(C)O)cc5c4)c3O)cc2Cl)c1=O', '1 to 10 nM'),
  ('Cn1ccn(-c2ccc(-c3cc(F)cc(-c4ccnc(N5CC6CCC(C5)N6)c4)c3O)cc2Cl)c1=O', '1 to 10 nM'),
  ('CC(=O)Nc1ccc(-c2cccc(-c3cc(C)nc(N4CCNCC4)c3)c2O)cc1F', '1 to 10 nM'),
  ('Cn1ccn(-c2ccc(-c3cc(F)cc(-c4cccc(C#CC(C)(C)N)c4)c3O)cc2Cl)c1=O', '1 to 10 nM'),
  ('Cn1ccn(-c2ccc(-c3cc(F)cc(-c4ccnc(N5CCC(C)(N)C5)c4)c3O)cc2Cl)c1=O (stereo not shown)', '0.01 to 1 nM'),
  ('O=C1CCCN1c1ccc(-c2cc(F)cc(-c3ccnc(N4CCNCC4)c3)c2O)cc1F', '1 to 10 nM'),
  ('O=C1CCCN1c1ccc(-c2cccc(-c3cncc(N4CCNCC4)c3)c2O)cc1F', '1 to 10 nM');

====

Documented IC50 across a set of compounds
- ASSAY TARGET: human BRD4 bromodomain II (Homo sapiens, UniProt O60885)
- Construct: human BRD4 bromodomain II [based on Genbank NM_058243, residues 349-460]; host or cells: E. coli
- METHOD NOTES: Bromodomain binding assay (AlphaScreen), BRD4 BDII
- REPORTED CONDITIONS: AlphaScreen assay, Table C2; read-out: BRD4 BDII IC50
READOUT: IC50

INSERT INTO results (compound, val) VALUES
  ('CC(=O)N1CCc2cc(-c3cccc(-c4cc(N5CCNCC5)no4)c3O)ccc21 [Example 31, 2,2,2-trifluoroacetate]', '> 100 nM'),
  ('CC(=O)Nc1ccc(-c2cccc(-c3ccnc(N4CC5(CNC5)C4)c3)c2O)cc1Cl', '10 to 100 nM'),
  ('CC(=O)Nc1ccc(-c2cccc(-c3cc(C)c(NC(C)=O)c(F)c3)c2O)cc1F', '> 100 nM'),
  ('CC(=O)Nc1ccc(-c2cccc(-c3ccc(C)cc3)c2O)cc1F', '> 100 nM');

====

- Tested on: human SKM-1 acute myeloid leukemia cells
- METHOD NOTES: SKM-1 antiproliferation cell-based assay (ATPlite)
- REPORTED CONDITIONS: Homo sapiens, SKM-1, 96 h, SKM-1 antiproliferation assay, 4 days, Table C2
The entries below come with measured GI50 values attached.
READOUT: GI50

INSERT INTO results (compound, readout, val) VALUES
  ('O=C1NCCCN1c1ccc(-c2cc(F)cc(-c3ccnc(N4CCNCC4)c3)c2O)cc1Cl', 'GI50', '300 to 3000 nM'),
  ('CN1CCN(c2ccc(-c3cc(F)cc(-c4cnc(C#N)c(N5CCNCC5)c4)c3O)cc2Cl)C1=O', 'GI50', '30 to 300 nM'),
  ('Cn1ccn(-c2ccc(-c3cc(F)cc(-c4cccc(N5CCN(C(C)(C)C)CC5)c4)c3O)cc2Cl)c1=O', 'GI50', '0.3 to 30 nM'),
  ('COc1ncc(-c2cc(F)cc(-c3ccc(-n4ccn(C)c4=O)c(Cl)c3)c2O)cc1N1CC2CCC(C1)N2C(C)C', 'GI50', '0.3 to 30 nM'),
  ('Cc1cc(-c2cc(C)nc(N3CC[C@H](N)C3)c2)c(O)c(-c2ccc(-n3ccn(C)c3=O)c(Cl)c2)c1', 'GI50', '0.3 to 30 nM'),
  ('CC(=O)Nc1ccc(-c2cccc(-c3cc(C#N)cc(N4CCNCC4)c3)c2O)cc1F', 'GI50', '30 to 300 nM'),
  ('O=c1[nH]c2ccc(-c3cc(F)cc(-c4ccnc(N5CCNCC5)c4)c3O)cc2[nH]1', 'GI50', '≥ 3000 nM'),
  ('Cc1cc(-c2cncc(N3CC[C@H](N)C3)c2)c(O)c(-c2ccc(-n3ccn(C)c3=O)c(Cl)c2)c1', 'GI50', '0.3 to 30 nM'),
  ('Cc1ncc(-c2cc(F)cc(-c3ccc(-n4ccn(C)c4=O)c(Cl)c3)c2O)cc1N1CC(C)(O)C2(CC2)C1 (centres unmarked)', 'GI50', '0.3 to 30 nM'),
  ('Cn1ccn(-c2ccc(-c3cc(F)cc(-c4ccnc(N5C[C@@H](N)[C@H](O)C5)c4)c3O)cc2Cl)c1=O', 'GI50', '0.3 to 30 nM'),
  ('CCC(=O)Nc1cc(-c2cc(F)cc(-c3ccc(-n4ccn(C)c4=O)c(Cl)c3)c2O)cc(N2CC[C@H](N)C2)n1', 'GI50', '0.3 to 30 nM'),
  ('CC(=O)Nc1cc(-c2cc(F)cc(-c3ccc(-n4ccn(C)c4=O)c(Cl)c3)c2O)cc(N2CCN[C@H](C)C2)n1', 'GI50', '0.3 to 30 nM'),
  ('CC(C)N1CCC12CCN(c1cc(-c3cc(F)cc(-c4ccc(-n5ccn(C)c5=O)c(Cl)c4)c3O)ccn1)C2 (centres unmarked)', 'GI50', '0.3 to 30 nM'),
  ('CN[C@H]1CCCN(c2cc(-c3cc(F)cc(-c4ccc(N5CCN(C)C5=O)c(Cl)c4)c3O)ccn2)C1', 'GI50', '30 to 300 nM'),
  ('Cn1cc(-c2cc(F)cc(-c3ccc(-n4ccn(C)c4=O)c(Cl)c3)c2O)cc(N2CCC3(CCCN3)C2)c1=O (centres unmarked)', 'GI50', '0.3 to 30 nM'),
  ('COC[C@@H]1CN(c2cc(-c3cc(F)cc(-c4ccc(-n5ccn(C)c5=O)c(Cl)c4)c3O)ccn2)CCN1', 'GI50', '0.3 to 30 nM'),
  ('Cn1ccn(-c2c(F)cc(-c3cc(F)cc(-c4ccnc(N5CCNCC5)c4)c3O)cc2Cl)c1=O', 'GI50', '30 to 300 nM'),
  ('CC(=O)Nc1c(F)cc(-c2cccc(-c3cc(N4CCNCC4)no3)c2O)cc1OC1CC1 [Example 135, 2,2,2-trifluoroacetate]', 'GI50', '300 to 3000 nM'),
  ('COc1ncc(-c2cc(F)cc(-c3ccc(-n4ccn(C)c4=O)c(Cl)c3)c2O)cc1N1CCN(C(C)(C)C)CC1', 'GI50', '0.3 to 30 nM'),
  ('CC(=O)Nc1ccc(-c2cccc(-c3ccnc(N4CC[C@H](O)C4)c3)c2O)cc1F', 'GI50', '300 to 3000 nM'),
  ('CN1CCN(c2ccc(-c3cc(F)cc(-c4ccnc(N5CCNC(C(F)(F)F)C5)c4)c3O)cc2Cl)C1=O (centres unmarked)', 'GI50', '300 to 3000 nM'),
  ('Cc1ccc(-c2cc(F)cc(-c3ccc(-n4ccn(C)c4=O)c(Cl)c3)c2O)cc1N1CCN(C(C)(C)C)CC1', 'GI50', '0.3 to 30 nM'),
  ('Cn1ccn(-c2ccc(-c3cc(F)cc(-c4cc(-c5cn[nH]c5)cc(N5CCNCC5)c4)c3O)cc2Cl)c1=O', 'GI50', '0.3 to 30 nM'),
  ('Cn1ccn(-c2ccc(-c3cc(F)cc(-c4cncc(N5CCC6(CCCN6)C5)c4)c3O)cc2Cl)c1=O (centres unmarked)', 'GI50', '0.3 to 30 nM'),
  ('CC(=O)Nc1ccc(-c2cc(C)cc(-c3ccnc(N4CCNCC4)c3)c2O)cc1F', 'GI50', '30 to 300 nM'),
  ('Cn1ccn(-c2ccc(-c3cc(F)cc(-c4ccnc(N5CCN(CC6COC6)CC5)c4)c3O)cc2Cl)c1=O', 'GI50', '0.3 to 30 nM'),
  ('C[C@H]1CN(c2cc(-c3cc(F)cc(-c4ccc(-n5ccn(C)c5=O)c(Cl)c4)c3O)cc3[nH]ncc23)CCN1', 'GI50', '0.3 to 30 nM'),
  ('CC(=O)Nc1ccc(-c2cccc(-c3ccnc(N4CC[C@H](N)C4)c3)c2O)cc1F', 'GI50', '30 to 300 nM'),
  ('Cn1ccn(-c2ccc(-c3cc(F)cc(-c4ccnc(N5CCNc6ccccc65)c4)c3O)cc2Cl)c1=O', 'GI50', '≥ 3000 nM');
